TARGET OF ASSAY: c-Myc/Max/Ebox DNA (Homo sapiens)
Sequence (P01106 16-454): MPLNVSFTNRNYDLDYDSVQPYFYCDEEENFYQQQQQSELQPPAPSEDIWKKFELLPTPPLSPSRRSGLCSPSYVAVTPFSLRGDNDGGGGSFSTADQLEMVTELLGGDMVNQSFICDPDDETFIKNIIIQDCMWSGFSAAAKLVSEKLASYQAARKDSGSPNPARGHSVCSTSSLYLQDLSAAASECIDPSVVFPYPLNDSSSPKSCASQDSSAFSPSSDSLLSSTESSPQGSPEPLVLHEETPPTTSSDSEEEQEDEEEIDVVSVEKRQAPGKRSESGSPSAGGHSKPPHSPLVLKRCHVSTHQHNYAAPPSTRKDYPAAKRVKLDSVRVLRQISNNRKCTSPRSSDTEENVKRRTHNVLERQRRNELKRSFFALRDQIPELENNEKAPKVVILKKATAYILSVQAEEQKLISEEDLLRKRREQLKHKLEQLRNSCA
ASSAY PROTOCOL: c-Myc/Max/Ebox DNA AlphaScreen assay
Type: binding
Parameters: An exemplary assay uses full-length human c-Myc and Max proteins; his6 (cleaved yes); made in house
CONDITIONS: c-Myc/Max/Ebox DNA AlphaScreen; NA: inactive under assay conditions; read-out: Biochemical IC50
pIC50: −log10 of the molar value.
Record satisfied whenever pIC50 is at 5 or higher; record not satisfied when lower.

Answered cases to consult:
- COMPOUND: "Cc1ccc(C)n1-c1cc(C(=O)N/N=C/c2ccc(F)c(F)c2)ccc1C(=O)O [Compound 99]"
  CLASS: "satisfied"
- COMPOUND: "CCOC(=O)c1ccc(-n2c(CCC(=O)O)ccc2-c2ccccc2)cc1O [Compound 25]"
  CLASS: "not satisfied"
- COMPOUND: "Cc1ccc(C)n1-c1cc(C(=O)N/N=C/c2c(Cl)ncnc2Cl)ccc1C(=O)O [Compound 88]"
  CLASS: "satisfied"
- COMPOUND: "Cc1ccc(C(=O)O)cc1-n1c(C)cc(CN2CCC(N)(C(=O)O)C2)c1C (stereo not shown) [Compound 44]"
  CLASS: "not satisfied"
- COMPOUND: "Cc1ccc(C)n1-c1cc2ccccc2cc1C(=O)O [Compound 129]"
  CLASS: "not satisfied"

Is reported pIC50 greater than or equal to 5 here: Cc1cccc(Nc2ccccc2C(=O)O)c1C [Compound 153]
not satisfied

Textbook exercise: given the entry CC1(C)CC(=O)c2cc(CC(=O)O)n(-c3cccc(C(=O)O)c3)c2C1 [Compound 43] , state whether its pIC50 is greater than or equal to 5.
not satisfied

Hi team, for CC(=O)Nc1ccc(-n2c(C)ccc2C)c(C(=O)O)c1 [Compound 155] , is the recorded pIC50 at or above 5?
satisfied

Has Cc1ccc(C)n1-c1cc(C(=O)N/N=C\c2ccc(O)c(F)c2)ccc1C(=O)O [Compound 117] a recorded pIC50 greater than or equal to 5?
satisfied

Evaluate Cc1ccc(C)n1-c1cc(C(=O)N/N=C/c2ccc(N(C)C)cc2)ccc1C(=O)O [Compound 87] : pIC50 at minimum 5?
not satisfied

Please indicate if the recorded pIC50 for Cc1ccc(C)n1-c1cccc(C(=O)O)c1 [Compound 2] meets or exceeds 5.
not satisfied

====

Provide the recorded EC50 for the entries that follow.
Test system: Jurkat cells
ASSAY PROTOCOL: Cell viability assay (ATPlite), Jurkat
Type: cell-based, human
CONDITIONS: class symbols; NA: not active under assay conditions

- COMPOUND: "Cc1ccc(C)n1-c1cc(C(=O)N2CCCC(c3ccc(C(=O)O)cc3)C2)ccc1C(=O)O (centres unmarked) [Compound 210]"
  EC50: "≥ 100 µM"

Moving on to the next compound.
Specify measured EC50 for Cc1ccc(C)n1-c1cc(C(=O)N2CCCC(c3ccc(C(=O)O)cc3)C2)ccc1C(=O)O (centres unmarked) [Compound 209] .
≥ 100 µM

====

TARGET OF ASSAY: c-Myc/Max/Ebox DNA (Homo sapiens)
ASSAY PROTOCOL: c-Myc/Max/Ebox DNA AlphaScreen assay
Format: binding
Parameters: An exemplary assay uses full-length human c-Myc and Max proteins; his6 (cleaved yes); made in house
CONDITIONS: c-Myc/Max/Ebox DNA AlphaScreen; NA: inactive under assay conditions; read-out: Biochemical IC50
REPORTED PROPERTY: pIC50
Numbers only, as −log10 of the molar value.

- COMPOUND: "Cc1ccc(C)n1-c1cc(C(=O)N/N=C/c2ccc3nccnc3c2)ccc1C(=O)O [Compound 104]"
  TARGET OF ASSAY: "c-Myc/Max/Ebox DNA (Homo sapiens)"
  pIC50: 5.15

The following compounds each have a reported value; give each one's pIC50.
1. CN1CCN(c2ccccc2C(=O)O)CC1 [Compound 156]
2. Cc1ccc(C)n1-c1ccc(C(=O)O)c(O)c1 [Compound 127]
3. Cc1ccc(C)n1-c1cc(C(=O)NCCN2CCN(C)CC2)ccc1C(=O)O [Compound 74]
4. COc1cc(C(=O)OCOC(C)=O)c(-n2c(C)ccc2C)cc1OC [Compound 160]
5. Cc1cc(/C=C(/C#N)c2nc3ccccc3[nH]2)c(C)n1-c1ccccc1C(=O)O [Compound 59]
6. Cc1ccc(C)n1-c1cc(C(=O)N/N=C/c2ccc(-c3cncnc3)cc2)ccc1C(=O)O [Compound 102]

[3.46, 4.27, 3.98, 4.02, 3.90, 4.58]

Below are 7 compounds. Give each one its pIC50.
1. Cc1ccc(C)n1-c1ccccc1S(=O)(=O)O [Compound 128]
2. Cc1ccc(C)n1-c1ccccc1-c1nnn[nH]1 [Compound 162]
3. Cc1cc(/C=C(\C#N)C(=O)Nc2ccc(O)cc2)c(C)n1-c1ccccc1C(=O)O [Compound 52]
4. CC(=O)OCOC(=O)c1ccccc1-n1c(C)ccc1C [Compound 64]
5. Cc1ccc(C)n1-c1cc(C(=O)N/N=C/c2ccc(C(=O)O)o2)ccc1C(=O)O [Compound 124]
6. Cc1cc(/C=C2\SC(=O)N(C)C2=O)c(C)n1-c1ccccc1C(=O)O [Compound 56]
7. Cc1cc2c(n1-c1cccc(C(=O)O)c1)CC(C)(C)CC2=O [Compound 42]

[3.60, 3.82, 4.44, 3.81, 6.15, 3.99, 3.16]

Quick one: give me pIC50 for each item below, same order please.
1. Cc1ccc(C)n1-c1cc(C(=O)N/N=C/c2cccnc2)ccc1C(=O)O [Compound 86]
2. Cc1ccc(C)n1-c1cc(C(=O)N/N=C/c2ccc3cccnc3n2)ccc1C(=O)O [Compound 105]
3. Cc1ccc(C)n1-c1ccccc1CC(=O)O [Compound 68]
4. CC1(C)CC(=O)c2cc(CC(=O)O)n(-c3ccc(C(=O)O)cc3)c2C1 [Compound 51]
5. Cc1ccc(C)n1-c1cc(C(=O)N2CCc3ccc(C(=O)O)cc3C2)ccc1C(=O)O [Compound 165]
6. Cc1nccn1-c1ccccc1C(=O)O [Compound 26]
7. COc1ccc(/C=N/NC(=O)c2ccc(C(=O)O)c(-n3c(C)ccc3C)c2)c(OC)c1 [Compound 85]
8. O=C(O)c1cc(-n2cccc2)ccc1N1CCOCC1 [Compound 30]

[5.22, 5.53, 3.71, 3.28, 6.46, 3.35, 4.42, 3.56]

Go through the items and report each one's pIC50.
1. COc1cc(-n2c(C)ccc2C)c(Cl)cc1C(=O)O [Compound 131]
2. Cc1cc(/C=C2\C(=O)NC(=O)N(c3ccc(F)cc3)C2=O)c(C)n1-c1ccccc1C(=O)O [Compound 55]
3. Cc1ccc(C)n1-c1cc(C(=O)N/N=C/c2ccc(O)cc2)ccc1C(=O)O [Compound 83]
4. CCOC(=O)c1ccc(-n2c(C)ccc2-c2ccccc2)cc1 [Compound 13]
5. Cc1ccc(C)n1-c1cc(C(=O)N/N=C/c2ccc(-c3nnn[nH]3)cc2)ccc1C(=O)O [Compound 92]
6. Cc1cc(/C=C(/C#N)C(=O)NCCc2c[nH]c3ccccc23)c(C)n1-c1ccccc1C(=O)O [Compound 58]

3.31
4.23
5.16
3.84
5.78
3.87

====

System: MM1S cells
ASSAY PROTOCOL: Cell viability assay (ATPlite), MM1S
Type: cell-based, human
CONDITIONS: Homo sapiens, MM1.S, 72 h, cell viability, three days, ATPlite; NA: inactive under assay conditions
Excerpt: This assay was used for the H2171 and MM1S cell data shown in Table 2, and for the Jurkat (an immortalized line of human T lymphocyte cells), Ly1 (OCI-Ly1 human non-Hodgkin lymphoma cell line), Ly4 (OCI-Ly4 human non-Hodgkin lymphoma cell line), H2172 (NCI-H2172 human non-small cell lung cancer cell line), and CA-46 (a human Burkitt's lymphoma cell line) cell data shown in Table 3 and FIG. 12. Cells were counted and adjusted to 60,000 cells/mL. […]
Criterion: EC50 strictly less than 60 µM. Met: yes. Not met: no.

Solved cases below.
- CHEMICAL SMILES: "Cc1ccc(C)n1-c1cc(C(=O)N/N=C/c2ccc3ccccc3n2)ccc1C(=O)O"
  CLASS: "yes"
- CHEMICAL SMILES: "CC(=O)OCOC(=O)c1ccccc1N1CCN(C)CC1"
  CLASS: "no"
- CHEMICAL SMILES: "CCOC(=O)c1ccc(-n2c(CCC(=O)O)ccc2-c2ccc(Br)cc2)cc1O"
  CLASS: "yes"
- CHEMICAL SMILES: "Cc1ccc(C)n1-c1ccccc1S(=O)(=O)O"
  CLASS: "no"

Strictly below 60 µM in EC50? Cc1ccc(C)n1-c1c(C(=O)O)cccc1[N+](=O)[O-]
no

====

So I've got a bunch of compounds here, and I need their pIC50 values.
TARGET OF ASSAY: c-Myc/Max/Ebox DNA (Homo sapiens)
ASSAY PROTOCOL: c-Myc/Max/Ebox DNA AlphaScreen assay
Type: binding
Parameters: An exemplary assay uses full-length human c-Myc and Max proteins; his6 (cleaved yes); made in house
CONDITIONS: class symbols; NA: not active under assay conditions; read-out: Myc/Max IC50
pIC50: −log10 of the molar value.

- COMPOUND: "Cc1ccc(C)n1-c1cc(-c2nnc(-c3ccc(C(=O)O)cc3)o2)ccc1C(=O)O"
  TARGET OF ASSAY: "c-Myc/Max/Ebox DNA (Homo sapiens)"
  pIC50: "4.00 to 5.00"
- COMPOUND: "Cc1ccc(C)n1-c1cc(C(=O)N2CCCC(c3ccccc3C(=O)O)C2)ccc1C(=O)O (stereo not drawn)"
  TARGET OF ASSAY: "c-Myc/Max/Ebox DNA (Homo sapiens)"
  pIC50: "> 6.00"
- COMPOUND: "COC(=O)c1ccc(C(=O)NNC(=O)OC(C)(C)C)cc1-n1c(C)ccc1C"
  TARGET OF ASSAY: "c-Myc/Max/Ebox DNA (Homo sapiens)"
  pIC50: "≤ 4.00"
- COMPOUND: "Cc1cnc(C(=O)N2CCN(C(=O)c3ccc(C(=O)O)c(-n4c(C)ccc4C)c3)CC2)cn1"
  TARGET OF ASSAY: "c-Myc/Max/Ebox DNA (Homo sapiens)"
  pIC50: "4.00 to 5.00"
- COMPOUND: "Cc1ccc(C)n1-c1cc(-c2nnc(-c3ccc(OCc4ccccc4)c(OCc4ccccc4)c3OCc3ccccc3)o2)ccc1C(=O)O"
  TARGET OF ASSAY: "c-Myc/Max/Ebox DNA (Homo sapiens)"
  pIC50: "5.00 to 6.00"

Okay, now this compound:
# lookup: c-Myc/Max/Ebox DNA (Homo sapiens) pIC50, key = Cc1ccc(C)n1-c1cc(Br)ccc1C(=O)NS(C)(=O)=O
≤ 4.00

Values compiled from patent US9567301B2.
